Overview of recorded protein stability index for various variants
B1: TRAF3IP2 (parent)
chain: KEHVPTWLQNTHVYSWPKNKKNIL

- Variants of: B1
- procedure-text: protein stability index of a GFP-peptide fusion (GPS, HEK-293T) (PSI 1-6); higher = more stable;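 also: lentivirally expressed fusions sorted by FACS into six bins by GFP to DsRed ratio, PSI derived from sequencing read proportions per bin multiplied by bin number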
- experimental-conditions: c terminus: a fixed tail appended
Output: the number by itself.

The cases that follow already have their protein stability index on record.
construct-sequence | protein stability index
KEHVPTWLQNTHVYSWPKNKKNIQ | 2.98
KEHVPTWSQNTHVYSWPKNKKNIL | 3.01
KEHVPTVLQNTHVYSWPKNKKNIL | 3.82

Query: Could you tell me which protein stability index is on file for `KEHVPTWNQNTHVYSWPKNKKNIL` ?
Reply: 3.2

Query: Look up protein stability index: `KEHVPTWLQNTHVYSWPKNAKNIL`
Reply: 1.94

Query: Please report the recorded protein stability index for `KEHVPLWLQNTHVYSWPKNKKNIL` .
Reply: 2.58

Query: Can you share its protein stability index? I mean this variant: `KEHVPTWLQNNHVYSWPKNKKNIL`
Reply: 3.08

Query: If you can, please state the reported protein stability index value of `KEHVPTWLQNTHDYSWPKNKKNIL` .
Reply: 3.88

Query: Need protein stability index, item `KQHVPTWLQNTHVYSWPKNKKNIL`
Reply: 2.15

Query: # lookup: protein stability index of `KEHVPTWLENTHVYSWPKNKKNIL`
Reply: 2.68

Query: Reported protein stability index, variant `KEHVPTWLQNVHVYSWPKNKKNIL` : ____
Reply: 2.52

Query: Given `KEHVPTWLQNSHVYSWPKNKKNIL` , state its recorded protein stability index.
Reply: 2.88

Query: I'd like to know its protein stability index. The variant in question is `KEHVPTWLQNTHTYSWPKNKKNIL`
Reply: 2.66

Query: Name the recorded protein stability index for `KIHVPTWLQNTHVYSWPKNKKNIL` .
Reply: 1.58

Query: GET /values?readout=protein stability index&item= `KEHVPTWLQNTHVYSWPKNSKNIL`
Reply: 2.64

Query: protein stability index for `KEHVPTWLQNTHVYSWPKNKHNIL` ?
Reply: 2.17

Query: I'd like to know its protein stability index. The variant in question is `KEHVPTWLQNTHVYSWPKNKKEIL`
Reply: 2.64

Query: I would be grateful if you could share the reported protein stability index for `KEHVPTWLQNTHVYSWPANKKNIL` .
Reply: 2.66

Query: Requested read-out: protein stability index. Entry: `KEKVPTWLQNTHVYSWPKNKKNIL`
Reply: 2.83

Query: Item under review: `KEHVPTWLQNTHVYSWPKNVKNIL` . Reported protein stability index?
Reply: 1.99

Query: Consider the variant `KEHVPTWLQNTKVYSWPKNKKNIL` and give its measured protein stability index.
Reply: 2.51
